experiment: Stability at -10 to 40 degC after 24 hrs by FPLC assay; type: physicochemical
Measure Name: Stability

Smiles Structure	Stability
C[n+]1cccc(C(=O)Oc2cc(Cl)ccc2Oc2ccc(Cl)cc2Cl)c1.[Cl-]	Stable
CCCCC(=O)Oc1cc(Cl)ccc1Oc1ccc(Cl)cc1Cl	Stable
O=C(O)CCCC(=O)Oc1cc(Cl)ccc1Oc1ccc(Cl)cc1Cl	Stable
CC(=O)CCC(=O)Oc1cc(Cl)ccc1Oc1ccc(Cl)cc1Cl	Stable
NC(=O)CCC(=O)Oc1cc(Cl)ccc1Oc1ccc(Cl)cc1Cl	Stable

Exercise: Entry under review: `C[N+](C)(C)CCOC(=O)CCCC(=O)Oc1cc(Cl)ccc1Oc1ccc(Cl)cc1Cl.[Cl-]` . Reported Stability?
Solution: Stable
